Recorded IC50, one value per entry.
Tested on: 786-0
Assay: Antiproliferative activity against human 786-0 cells assessed as cell growth inhibition measured for 72 hrs by MTT assay
Type: functional, cell-based
Details: 786-0, 72 h
Show the value, then the unit it is measured in.

Some solved cases for reference:
[[record]]
compound = "O=C1CCC(N2C(=O)c3cccc(NCCCCCCCCNC(=O)c4nn(Cc5ccc(Cl)cc5Cl)c5ccccc45)c3C2=O)C(=O)N1 (stereo not drawn)"
target_or_test_system = "786-0"
reported = "29.2 µM"

[[record]]
compound = "O=C1CCC(N2C(=O)c3cccc(NCCCCCCNC(=O)c4nn(Cc5ccc(Cl)cc5Cl)c5ccccc45)c3C2=O)C(=O)N1 (stereo not drawn)"
target_or_test_system = "786-0"
reported = "29.4 µM"

[[record]]
compound = "O=C(COc1cccc2c1C(=O)N(C1CCC(=O)NC1=O)C2=O)NCCCCNC(=O)c1nn(Cc2ccc(Cl)cc2Cl)c2ccccc12 (stereo not drawn)"
target_or_test_system = "786-0"
reported = "40.4 µM"

[[record]]
compound = "O=C1CCC(N2C(=O)c3cccc(NCCCCOC(=O)c4nn(Cc5ccc(Cl)cc5Cl)c5ccccc45)c3C2=O)C(=O)N1 (stereo not drawn)"
target_or_test_system = "786-0"
reported = "70.3 µM"

[[record]]
compound = "O=C1CCC(N2C(=O)c3cccc(NCCCOC(=O)c4nn(Cc5ccc(Cl)cc5Cl)c5ccccc45)c3C2=O)C(=O)N1 (stereo not drawn)"
target_or_test_system = "786-0"
reported = "36.7 µM"

[[record]]
compound = "O=C1CCC(N2C(=O)c3cccc(NCCCCCCOC(=O)c4nn(Cc5ccc(Cl)cc5Cl)c5ccccc45)c3C2=O)C(=O)N1 (stereo not drawn)"
target_or_test_system = "786-0"
reported = "33.9 µM"

[[record]]
compound = "O=C1CCC(N2C(=O)c3cccc(NCCNC(=O)c4nn(Cc5ccc(Cl)cc5Cl)c5ccccc45)c3C2=O)C(=O)N1 (stereo not drawn)"
target_or_test_system = "786-0"
reported = "34.9 µM"

[[record]]
compound = "O=C1CCC(N2C(=O)c3cccc(OCCCNC(=O)c4nn(Cc5ccc(Cl)cc5Cl)c5ccccc45)c3C2=O)C(=O)N1 (stereo not drawn)"
target_or_test_system = "786-0"
reported = "29.8 µM"


## Input For O=C(COc1cccc2c1C(=O)N(C1CCC(=O)NC1=O)C2=O)NCCCCCCNC(=O)c1nn(Cc2ccc(Cl)cc2Cl)c2ccccc12 (stereo not drawn) , what is its reported IC50?
## Output 35.8 µM

## Input For O=C(COc1cccc2c1C(=O)N(C1CCC(=O)NC1=O)C2=O)NCCNC(=O)c1nn(Cc2ccc(Cl)cc2Cl)c2ccccc12 (stereo not drawn) , what is its reported IC50?
## Output 63.9 µM

## Input For O=C1CCC(N2C(=O)c3cccc(NCCCCNC(=O)c4nn(Cc5ccc(Cl)cc5Cl)c5ccccc45)c3C2=O)C(=O)N1 (stereo not drawn) , what is its reported IC50?
## Output 34.1 µM

## Input For O=C1CCC(N2C(=O)c3cccc(NCCOCCOCCOCCOC(=O)c4nn(Cc5ccc(Cl)cc5Cl)c5ccccc45)c3C2=O)C(=O)N1 (stereo not drawn) , what is its reported IC50?
## Output 28.2 µM

## Input For "O=C(O)c1nn(Cc2ccc(Cl)cc2Cl)c2ccccc12" , what is its reported IC50?
## Output 120 µM
